- target_desc: T1, human EphB1 (Homo sapiens, UniProt P54762)
- T1 construct: a protein of the extracellular region of each human Eph receptor fused with the SEAP protein and the His tag; made in house; host or cells: Expi293F cells (culture supernatant)
- T1 sequence (P54762 18-540 limits assumed): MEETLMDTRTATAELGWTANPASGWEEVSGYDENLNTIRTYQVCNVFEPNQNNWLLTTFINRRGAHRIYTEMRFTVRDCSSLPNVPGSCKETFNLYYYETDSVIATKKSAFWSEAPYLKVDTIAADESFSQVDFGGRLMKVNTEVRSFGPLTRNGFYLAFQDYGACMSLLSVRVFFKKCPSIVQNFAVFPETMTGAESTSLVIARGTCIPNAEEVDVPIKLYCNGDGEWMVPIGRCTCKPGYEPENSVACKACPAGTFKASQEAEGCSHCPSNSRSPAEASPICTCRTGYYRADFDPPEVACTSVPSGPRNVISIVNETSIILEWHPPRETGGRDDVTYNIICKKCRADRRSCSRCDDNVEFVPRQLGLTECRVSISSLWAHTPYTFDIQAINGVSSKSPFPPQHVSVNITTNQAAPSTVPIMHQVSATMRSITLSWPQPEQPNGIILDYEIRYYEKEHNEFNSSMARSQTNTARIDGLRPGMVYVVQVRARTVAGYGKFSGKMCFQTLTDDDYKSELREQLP
- method: Selectivity ELISA of humanized antibodies for human Eph receptor
- Type: binding
- experimental_parameters: coated protein 1 nM
property_measured: hEphB1-SEAP-: absorbance at 450 nm, percentage with respect to hEphA4-SEAP-His as 100% (%)
Dear colleague, please return just the value in %, with no unit written.

Param item = 153 (antibody, V domains shown, synthetic humanized antibody heavy chain variable region sequence; synthetic humanized antibody light chain variable region sequence) VH: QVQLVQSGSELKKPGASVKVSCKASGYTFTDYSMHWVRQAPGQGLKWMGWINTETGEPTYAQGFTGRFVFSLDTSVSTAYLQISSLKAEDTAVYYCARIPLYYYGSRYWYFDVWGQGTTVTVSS VL: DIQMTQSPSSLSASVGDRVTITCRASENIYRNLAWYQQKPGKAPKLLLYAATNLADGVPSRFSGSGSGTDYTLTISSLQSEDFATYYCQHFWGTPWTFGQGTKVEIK ; retrieve measured hEphB1-SEAP-: absorbance at 450 nm, percentage with respect to hEphA4-SEAP-His as 100%.
6.0
